Target: T1, Human plasma sIL-6R (human, UniProt P08887 20-355, limits assumed)
T1 construct: also called plasma-derived human IL-6R
T1 sequence (looked up): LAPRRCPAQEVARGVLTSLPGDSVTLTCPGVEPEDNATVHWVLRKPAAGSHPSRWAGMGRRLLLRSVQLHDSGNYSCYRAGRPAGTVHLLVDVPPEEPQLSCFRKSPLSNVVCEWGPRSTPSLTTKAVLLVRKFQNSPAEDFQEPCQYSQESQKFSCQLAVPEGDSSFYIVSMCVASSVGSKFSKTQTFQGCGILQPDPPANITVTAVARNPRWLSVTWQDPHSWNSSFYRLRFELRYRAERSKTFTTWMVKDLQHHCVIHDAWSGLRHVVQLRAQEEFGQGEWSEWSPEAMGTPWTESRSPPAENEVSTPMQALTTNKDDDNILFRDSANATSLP
Assay: plasma potency assay, human plasma ([IL6R]: ~0.4 nM, [IL6]: 2.4 nM printed); sIL-6R captured on BN-12, bound IL-6 detected; blocked ligand IL-6
Listed next: entries and their corresponding IC50.
Just the number in nM, nothing appended.

In the examples that follow, each entry is paired with its recorded IC50.
- binder: "IL6R65 (VHH, also called ILR65; parent Nanobody) VHH: EVQLVESGGGLVQPGGSLRLSCAASGSIFKVNAMGWYRQAPGKGRELVAGIISGGSTNYADSVKGRFTISRDNAKNTLYLQMNSLRPEDTAVYYCAFVTTNSDYDLGRDYWGQGTLVTVSS"
  uom: "nM"
  IC50: 4.93
- binder: "PMP7G8 (VHH, expressed with c-myc and (His)6 tags) VHH: EVQLVESGGGLVQPGGSLRLSCAASGSTFRINVMAWYRQAPGKGRELVAGVINDGSTTYADSVKGRFTISRDNAKNTLYLQMNSLRPEDTAVYYCAFVTTNSDYDLGRDYWGQGTLVTVSS"
  uom: "nM"
  IC50: 0.34
- binder: "PMP7D6 (VHH, not shown: c-myc and (His)6 tags) VHH: EVQLVESGGGLVQPGGSLRLSCAASGSIFRVNVMAWYRQAPGKGRELVAAVINGGTTTYADSVKGRFTISRDNAKNTLYLQMNSLRPEDTAVYYCAFVTTNSDYDLGRDYWGQGTLVTVSS"
  uom: "nM"
  IC50: 0.19
- binder: "PMP7C4 (VHH, not shown: c-myc and (His)6 tags) VHH: EVQLVESGGGLVQPGGSLRLSCAASGTTFRINVMAWYRQAPGKGRELVAGIITNGSTSYADSVKGRFTISRDNAKNTLYLQMNSLRPEDTAVYYCAFVTTNSDYDLGRDYWGQGTLVTVSS"
  uom: "nM"
  IC50: 0.21
- binder: "PMP7F4 (VHH) VHH: EVQLVESGGGLVQPGGSLRLSCAASGTTFKVNVMAWYRQAPGKGRELVAGIINGGSTTYADSVKGRFTISRDNAKNTLYLQMNSLRPEDTAVYYCAFVTTNSDYDLGRDYWGQGTLVTVSS"
  uom: "nM"
  IC50: 0.24

# evaluate next
I'd like to know its IC50. The binder in question is PMP7G7 (VHH, expressed with c-myc and (His)6 tags) VHH: EVQLVESGGGLVQPGGSLRLSCAASGTTFKINIMAWYRQAPGKGRELVAGVITGGNTTYADSVKGRFTISRDNAKNTLYLQMNSLRPEDTAVYYCAFVTTNSDYDLGRDYWGQGTLVTVSS
0.22
